assay: gradient 5% acetonitrile 3 min, to 50% in 2 min, to 85% in 15 min, held 3 min, 100 µL/min; conditions: column: Zorbax Extend-C18 2.1 x 50 mm; eluents: water / acetonitrile, 0.1% formic acid
Hi there, I'd appreciate the recorded RP-LC retention time for every entry that follows.
One number for each entry, in s.

These solved cases illustrate the format of a correct answer.
{"Compound": "CCNC(=O)C1CCCN(c2nc3ncn(CC(=O)N4CCc5ccccc5C4)c(=O)c3s2)C1 (centres undefined)", "Reported measurement": 690}
{"Compound": "O=C(CSC1CCc2ccccc2NC1=O)Nc1ccc(F)c(Cl)c1 (centres undefined)", "Reported measurement": 873}
{"Compound": "COc1ccc(-c2cc(N3CCN(C(=O)COc4ccc(C)cc4OC)CC3)ncn2)cc1", "Reported measurement": 608}
{"Compound": "CCOC(=O)c1ccccc1NC(=O)Cn1cnc2c(sc3nc(-c4ccccc4)ccc32)c1=O", "Reported measurement": 1200}
{"Compound": "NC(=O)[C@@H]1C[C@H](Oc2ccccc2)CN1C1CCC1", "Reported measurement": 571}
{"Compound": "CN(Cc1ccccc1)C(=O)Cn1cnc2nc3c(cc2c1=O)CCCC3", "Reported measurement": 725}
{"Compound": "COc1ccc(-c2ncc3c(n2)CCN(C(=O)Nc2cccc(Br)c2)C3)cc1", "Reported measurement": 1010}
{"Compound": "O=C(Nc1ccc(F)c(Cl)c1)C1CCc2nc(N3CCOCC3)ncc2C1 (centres undefined)", "Reported measurement": 855}

Turning now to a further compound:
Entry O=C(NCc1ccco1)c1c(-c2ccccc2)nnc2ccccc12 , RP-LC retention time reported as 756

* * *

experiment: gradient 5% acetonitrile 3 min, to 50% in 2 min, to 85% in 15 min, held 3 min, 100 µL/min; details: column: Zorbax Extend-C18 2.1 x 50 mm; eluents: water / acetonitrile, 0.1% formic acid
Measurement kind: RP-LC retention time (s)
Numbers only, in s.

Some entries whose results are on file:
{"Compound": "CCc1cc(C(=O)NCc2ccc(F)cc2)nc2ccnn12", "Units text": "s", "RP-LC retention time": 909}
{"Compound": "Cc1ccccc1CNC(=O)c1cn2c(n1)CCCC2", "Units text": "s", "RP-LC retention time": 762}
{"Compound": "O=C(Nc1ccccc1)N1CCC(CCNC(=O)C2(c3ccccc3)CC2)CC1", "Units text": "s", "RP-LC retention time": 882}
{"Compound": "Cc1ccc(NC(=O)Nc2cnn(-c3ncncc3N3CCOCC3)c2)cc1Cl", "Units text": "s", "RP-LC retention time": 695}
{"Compound": "Cc1nc(-c2ccc3c(c2)CCN3C(=O)c2cccc(F)c2)cs1", "Units text": "s", "RP-LC retention time": 992}
{"Compound": "Cc1ccnc(N2CCC(C(=O)N3CCN(C(=O)c4ccco4)CC3)CC2)n1", "Units text": "s", "RP-LC retention time": 616}
{"Compound": "COc1cc(OC)c(NS(=O)(=O)c2cc(-c3cc(C(F)(F)F)[nH]n3)sc2C)cc1Cl", "Units text": "s", "RP-LC retention time": 1020}
{"Compound": "COc1ncccc1CNC(=O)c1cccn1C", "Units text": "s", "RP-LC retention time": 704}
{"Compound": "O=C(Nc1cnc2ccccc2c1)N(c1ccccc1)c1ccccc1", "Units text": "s", "RP-LC retention time": 754}
{"Compound": "CC(C)c1ccc(-n2ccnc(NC(=O)Nc3ccc(F)cc3)c2=O)cc1", "Units text": "s", "RP-LC retention time": 1100}

Please go through the list and note RP-LC retention time for each compound.
1. Cc1cccc(-n2cc(C(=O)OCC(=O)OC(C)(C)C)c3ccccc3c2=O)c1
2. O=C(CCc1c(-c2ccccc2)nc2ccccn12)Nc1ccc(F)cc1F
3. COCCNC(=O)N1CCCN(C2=NS(=O)(=O)C(c3ccc(F)cc3)=C2C)CC1
4. O=C(Nc1ccc(NC(=O)N2CCC(C(=O)NCC3CC3)CC2)cc1)NC1CCCCC1
5. COc1ccc(OC)c(NC(=O)c2cn3c(n2)CSCC3)c1
6. COc1cccc(CNC(=O)NCCc2cn(C)c3ncccc23)c1
7. COc1ccc2nc(NC(=O)C3CCN(C(=O)c4ccc(-c5noc(C)n5)cc4)CC3)sc2c1
8. CCS(=O)(=O)N1CC(=O)N(c2ccc(Cl)cc2C)C(C)(C(=O)NCc2ccccc2)C1 (centres undefined)

1210
666
669
733
767
642
803
906

Hi there! I need RP-LC retention time for each item below, if you can.
1. CC(=O)Nc1ccc(C(=O)Nc2ccccc2N)cc1
2. O=C(C1CCCN(c2ncnc3c2nc2n3CCCCC2)C1)N1CCN(c2ccc(Cl)cc2)CC1 (centres undefined)
3. CCN(CC)c1ccc(-c2noc(CN3CCSCC3)n2)cn1
4. O=S(=O)(c1ccccc1)N1CCCC(c2nnnn2-c2ccccc2)C1 (centres undefined)
5. CCN(CC)c1ncc2c(n1)CCC(C(=O)Nc1ccc(OC)c(OC)c1)C2 (centres undefined)
6. C=CCc1c(C)nn(-c2nc(CC(=O)Nc3nc4ccccc4[nH]3)cs2)c1C

[629, 928, 651, 928, 660, 764]
